# System: HL-60
# experimental-details: Cytotoxicity against human HL60 cells assessed as cell viability after 48 hrs by celltiter-blue assay
# Type: functional, cell-based
# experimental-conditions: HL-60, 48 h
Labelling field: enter true (1) if recorded IC50 is less than 7 µM. Enter false (0) if it equals or exceeds that cut-off.

1) C#CCOC(=O)CC1C(C(=O)OCC#C)=C(N)Oc2ccc(-c3cccc(NCCO)c3)cc21 (racemic) :: true (1)
2) COc1cc(OC)cc(-c2ccc3c(c2)C(CC(=O)OCC2CO2)C(C(=O)OCC2CO2)=C(N)O3)c1 (racemic) :: false (0)
3) CCOC(=O)CC1C(C(=O)OCC)=C(N)Oc2ccc(-c3ccco3)cc21 (racemic) :: false (0)
4) C#CCOC(=O)CC1C(C(=O)OCC#C)=C(N)Oc2ccc(-c3ccc(N(C)C)cc3)cc21 (racemic) :: true (1)
5) CCOC(=O)CC1C(C(=O)OCC)=C(N)Oc2ccc(-c3ccc(F)cc3)cc21 (racemic) :: false (0)
6) CN(C)CC[C@H](CSc1ccccc1)Nc1ccc(S(=O)(=O)NC(=O)c2ccc(N3CCN(Cc4ccccc4-c4ccc(Cl)cc4)CC3)cc2)cc1[N+](=O)[O-] [ABT 737] :: true (1)
7) C#CCOC(=O)CC1C(C(=O)OCC)=C(N)Oc2ccc(-c3cccc(N)c3)cc21 (racemic) :: true (1)
8) C#CCOC(=O)CC1C(C#N)=C(N)Oc2ccc(-c3cccc(N)c3)cc21 (racemic) :: false (0)
9) C#CCOC(=O)CC1C(C(=O)OCC)=C(N)Oc2ccc(-c3ccc(NCC)cc3)cc21 (racemic) :: false (0)
10) CCOC(=O)CC1C(C(=O)OCC)=C(N)Oc2ccc(-c3ccc(F)cc3F)cc21 (racemic) :: false (0)
11) CCOC(=O)CC1C(C(=O)OCC)=C(N)Oc2ccc(-c3cc(F)cc(F)c3)cc21 (racemic) :: false (0)
12) CC[C@]1(O)C[C@H]2CN(CCc3c([nH]c4ccccc34)[C@@](C(=O)OC)(c3cc4c(cc3OC)N(C=O)[C@H]3[C@@](O)(C(=O)OC)[C@H](OC(C)=O)[C@]5(CC)C=CCN6CC[C@]43[C@@H]65)C2)C1 [VINCRISTINE] :: true (1)
13) CCOC(=O)CC1C(C(=O)OCC)=C(N)Oc2ccc(-c3cccnc3)cc21 (racemic) :: false (0)
14) CCOC(=O)CC1C(C(=O)OCC)=C(N)Oc2ccc(-c3ccccn3)cc21 (racemic) :: false (0)
15) C#CCOC(=O)CC1C(C(=O)OCC)=C(N)Oc2ccc(-c3ccc(N)cc3)cc21 (racemic) :: false (0)
16) COC(=O)CC1C(C(=O)OC)=C(N)Oc2ccc(-c3cc(OC)cc(OC)c3)cc21 (racemic) :: true (1)
17) CCOC(=O)CC1C(C(=O)OCC)=C(N)Oc2ccc(-c3cccc(N)c3)cc21 (racemic) :: false (0)
18) COc1cc([C@@H]2c3cc4c(cc3[C@@H](O[C@@H]3O[C@@H]5CO[C@@H](C)O[C@H]5[C@H](O)[C@H]3O)[C@H]3COC(=O)[C@H]23)OCO4)cc(OC)c1O [ETOPOSIDE] :: true (1)
19) CCOC(=O)CC1C(C(=O)OCC)=C(N)Oc2ccc(-c3cccc(NC)c3)cc21 (racemic) :: false (0)
20) C#CCOC(=O)CC1C(C(=O)OCC#C)=C(N)Oc2ccc(-c3cccc(N(C)C)c3)cc21 (racemic) :: false (0)

Values were extracted from ChEMBL document CHEMBL2146381.
